- Test system: HCC-1428 breast cancer cells
- assay_remarks: SRB cell viability assay, HCC-1428
- Type: cell-based
- test_parameters: Homo sapiens, HCC1428; HCC-1428, Breast (ER+ PR+), 48 hours; read-out: IC50 (μM) (48 hours)
Counter-ions that a name gives are not always drawn.
experimental_readout: IC50 (µM)
Please reply with the bare figure in µM and do not write the unit itself.

IN: Endpoint output: IC50 of C=CCN(C)CCCCCCOc1ccc(C(=O)c2ccc(Br)cc2)c(F)c1 [Ro 48-8071, fumarate] . Value?
OUT: 11.6

---

- Tested on: A549 lung cancer cells
- assay_remarks: SRB cell viability assay, A549
- Assay type: cell-based
- test_parameters: Homo sapiens, 48 hours, read-out: IC50 (μM) (48 hours)
Structures can show the parent of a compound that is named as a salt.
experimental_readout: IC50 (µM)
Your answer is read as µM, so omit the unit and give the number.

IN: Entry under review: C=CCN(C)CCCCCCOc1ccc(C(=O)c2ccc(Br)cc2)c(F)c1 [Ro 48-8071, fumarate] . Reported IC50?
OUT: 9.26
